Examples of compounds with documented %Inh follow.
# Tested on: YANK1
# Construct: gene STK32A
# CONDITIONS: concentration: 1 μM, replicates: in singlicate; n = 1
Enter the number, and then the unit.

Please review the entries below; each comes with its answer.
NC(=O)c1nnc2ccccc2c1N
23%
COc1cc2ncnc(Nc3ccc4nc(-c5ccccc5)[nH]c4c3)c2cc1OC.Cl [GW282450]
2%
O=C(Nc1n[nH]c2nc(-c3nccs3)c(Br)cc12)C1CCCC1 [SB-742609]
4%
COc1ccccc1-c1ccc2c(NC(=O)C3CC3)n[nH]c2n1 [SB-711239]
15%
Cn1ccc2ncnc(Oc3ccc(NC(=O)Nc4ccccc4)cc3)c21
17%
COc1ccc(Nc2nccc(NCCNC(=O)Nc3ccccc3F)n2)cc1 [GSK1379901]
0%

**Q:** Lab request: please report %Inh under test system YANK1 for Nc1ncnc2[nH]c(-c3ccccc3)nc12 [AH5015];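 further: KINOMEscan kinase panel screen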
**A:** 98%

Where these numbers come from: paper PMC5540273
